Target: Muscle, skeletal receptor tyrosine-protein kinase (Homo sapiens, UniProt O15146)
Sequence (O15146 whole entry): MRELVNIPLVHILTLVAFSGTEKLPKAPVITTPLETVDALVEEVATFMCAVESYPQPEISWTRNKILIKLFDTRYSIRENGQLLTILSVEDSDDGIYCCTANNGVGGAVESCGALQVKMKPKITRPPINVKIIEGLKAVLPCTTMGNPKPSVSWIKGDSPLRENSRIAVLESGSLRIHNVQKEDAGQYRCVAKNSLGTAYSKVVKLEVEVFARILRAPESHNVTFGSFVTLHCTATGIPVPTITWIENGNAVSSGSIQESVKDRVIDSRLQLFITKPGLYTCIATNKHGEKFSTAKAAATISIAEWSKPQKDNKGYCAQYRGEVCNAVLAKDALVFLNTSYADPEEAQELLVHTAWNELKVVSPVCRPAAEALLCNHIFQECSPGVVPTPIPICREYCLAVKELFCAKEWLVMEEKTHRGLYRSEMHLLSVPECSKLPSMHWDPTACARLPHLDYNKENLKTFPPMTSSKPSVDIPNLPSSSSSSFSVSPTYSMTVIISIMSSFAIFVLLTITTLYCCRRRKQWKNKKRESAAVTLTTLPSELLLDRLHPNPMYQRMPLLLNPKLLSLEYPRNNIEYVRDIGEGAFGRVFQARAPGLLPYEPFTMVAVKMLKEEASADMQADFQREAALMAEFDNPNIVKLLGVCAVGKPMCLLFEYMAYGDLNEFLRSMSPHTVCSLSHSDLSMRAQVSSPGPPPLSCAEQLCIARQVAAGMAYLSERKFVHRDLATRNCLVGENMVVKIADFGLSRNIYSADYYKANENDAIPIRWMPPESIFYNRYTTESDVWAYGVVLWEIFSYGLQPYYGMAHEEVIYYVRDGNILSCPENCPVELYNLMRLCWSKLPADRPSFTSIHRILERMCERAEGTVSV

| compound | IC50 (nM) |
| --- | --- |
| CN1C(=O)[C@@H](N2CCc3c(nn(Cc4ccccc4)c3Br)C2=O)COc2ccccc21 [TP-030-2] | 1000 |

----------
Target: Mitogen-activated protein kinase 13 (Homo sapiens, UniProt O15264)
Sequence (O15264 whole entry): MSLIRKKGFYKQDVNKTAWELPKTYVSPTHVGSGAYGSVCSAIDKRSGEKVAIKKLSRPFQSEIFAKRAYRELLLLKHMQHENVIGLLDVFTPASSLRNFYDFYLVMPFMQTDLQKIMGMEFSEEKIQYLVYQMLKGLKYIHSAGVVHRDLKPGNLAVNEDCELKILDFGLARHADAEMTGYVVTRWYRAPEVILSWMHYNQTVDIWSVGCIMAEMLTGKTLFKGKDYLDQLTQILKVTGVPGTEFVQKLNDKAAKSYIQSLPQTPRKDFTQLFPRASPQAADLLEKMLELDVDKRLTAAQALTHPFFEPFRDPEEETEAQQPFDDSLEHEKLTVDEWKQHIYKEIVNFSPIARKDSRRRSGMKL
Test: p38delta(MP13LGP1) Takeda global kinase panel
readout name: IC50 (nM)

| molecule | readout name | readout units | measured result |
| --- | --- | --- | --- |
| CN1C(=O)[C@@H](N2CCc3c(nn(Cc4ccccc4)c3Br)C2=O)COc2ccccc21 [TP-030-2] | IC50 | nM | 1000 |

----------
Target: Mitogen-activated protein kinase 4 (Homo sapiens, UniProt P31152)
Sequence (P31152 whole entry): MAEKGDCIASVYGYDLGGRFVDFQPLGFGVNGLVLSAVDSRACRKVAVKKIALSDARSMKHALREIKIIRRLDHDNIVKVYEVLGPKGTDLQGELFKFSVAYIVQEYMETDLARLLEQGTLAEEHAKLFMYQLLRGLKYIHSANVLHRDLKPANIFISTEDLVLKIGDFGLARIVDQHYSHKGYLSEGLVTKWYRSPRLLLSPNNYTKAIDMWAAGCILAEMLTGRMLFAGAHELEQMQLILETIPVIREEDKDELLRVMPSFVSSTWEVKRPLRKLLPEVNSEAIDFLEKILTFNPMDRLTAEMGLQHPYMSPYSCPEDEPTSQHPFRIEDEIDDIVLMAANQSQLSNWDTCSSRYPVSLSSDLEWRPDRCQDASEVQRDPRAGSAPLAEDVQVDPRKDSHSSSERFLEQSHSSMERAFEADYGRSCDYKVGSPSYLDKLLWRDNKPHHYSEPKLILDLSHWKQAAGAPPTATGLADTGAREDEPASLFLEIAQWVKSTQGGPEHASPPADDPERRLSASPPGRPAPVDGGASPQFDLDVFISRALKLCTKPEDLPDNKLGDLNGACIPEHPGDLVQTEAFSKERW
Test: ERK4(MAP4LGY1) Takeda global kinase panel
pIC50: −log10 of the molar value.

| mol | system name | pIC50 |
| --- | --- | --- |
| CN1C(=O)[C@@H](N2CCc3c(nn(Cc4ccccc4)c3Br)C2=O)COc2ccccc21 | Mitogen-activated protein kinase 4 (Homo sapiens, UniProt P31152) | 6.00 |
